Target: CRTH2 (Homo sapiens, UniProt Q9Y5Y4)
Assay: FRET based competitive immunoassay (cAMP) in CRTH2 expressing CHO cells
Details: CRTH2 expressing CHO cells incubated with forskolin and PGD2; Eu3+ cryptate-labeled anti-cAMP and d2-labeled cAMP
Below is a list of entries, each paired with its recorded pIC50 value.
In plain terms, pIC50 is the concentration in mol/L turned into minus its base-10 logarithm.

Recorded pIC50 for Cc1c(-c2ccc(=O)n(CCC(F)(F)F)c2)c2cc(F)ccc2n1CC(=O)O , please? 7.55

Could you share which pIC50 value was measured for Cc1c(Cc2ccc(=O)n(CC(C)(C)C)n2)c2cc(F)ccc2n1CC(=O)O ? 6.85

###

Molecular target: CRTH2 (Homo sapiens)
Assay: FRET based competitive immunoassay (cAMP) in CRTH2 expressing CHO cells
Conditions: CRTH2 expressing CHO cells incubated with forskolin and PGD2; Eu3+ cryptate-labeled anti-cAMP and d2-labeled cAMP
Recorded IC50 values for a group of compounds are listed next.
Numeric answer only, unit µM assumed.

compound="COc1ccc2c(c1)c(-c1nn(Cc3ccccc3)c(=O)c3ccccc13)c(C)n2CC(=O)O [Example 16]" metric=IC50 measurement=0.031

Bench note: what IC50 did COc1ccc(Cn2nc(-c3c(C)n(CC(=O)O)c4ccc(Cl)cc34)ccc2=O)cc1 [Example 148] show? 0.042

What measured IC50 goes with Cc1c(-c2ccc(=O)n(Cc3cccc(F)c3F)n2)c2ccccc2n1CC(=O)O [Example 188] ? 0.227

Return reported IC50; argument: Cc1c(-c2ccc(=O)n(Cc3ccc(Cl)c(F)c3)n2)c2cc(Cl)ccc2n1CC(=O)O [Example 8] 0.005

###

Molecular target: CRTH2 (Homo sapiens, UniProt Q9Y5Y4)
Sequence (Q9Y5Y4 1-395): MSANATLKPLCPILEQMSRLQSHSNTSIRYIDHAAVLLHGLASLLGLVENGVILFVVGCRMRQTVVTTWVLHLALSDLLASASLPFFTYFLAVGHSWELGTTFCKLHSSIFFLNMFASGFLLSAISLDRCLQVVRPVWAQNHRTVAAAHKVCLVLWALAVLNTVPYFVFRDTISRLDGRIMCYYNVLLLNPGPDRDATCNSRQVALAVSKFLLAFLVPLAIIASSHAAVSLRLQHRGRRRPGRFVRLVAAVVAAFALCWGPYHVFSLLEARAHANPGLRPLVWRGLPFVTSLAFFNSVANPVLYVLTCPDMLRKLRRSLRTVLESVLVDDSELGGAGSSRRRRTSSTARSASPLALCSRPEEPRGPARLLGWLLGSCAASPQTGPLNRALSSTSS
Experiment: FRET based competitive immunoassay (cAMP) in CRTH2 expressing CHO cells
Conditions: CRTH2 expressing CHO cells incubated with forskolin and PGD2; Eu3+ cryptate-labeled anti-cAMP and d2-labeled cAMP
// assign fulfilled if IC50 falls strictly below 20 nM, else not fulfilled (ties count as not fulfilled)

Record excerpt, results attached:
molecule_smiles=Cc1c(Cc2ccc(=O)n(Cc3ccc(C(C)(C)O)cc3)n2)c2cc(F)ccc2n1CC(=O)O tested_on="CRTH2 (Homo sapiens, UniProt Q9Y5Y4)" answer_label=fulfilled
molecule_smiles=Cc1c(-c2nn(Cc3ccccc3)c(=O)c3ccccc23)c2ccccc2n1CC(=O)N1CCCC1 tested_on="CRTH2 (Homo sapiens, UniProt Q9Y5Y4)" answer_label="not fulfilled"
molecule_smiles=Cc1c(-c2nn(C)c(=O)c3ccccc23)c2cc(F)ccc2n1CC(=O)O tested_on="CRTH2 (Homo sapiens, UniProt Q9Y5Y4)" answer_label="not fulfilled"
molecule_smiles=Cc1c(-c2nn(CC3CC3)c(=O)c3ccccc23)c2ccccc2n1CC(=O)O tested_on="CRTH2 (Homo sapiens, UniProt Q9Y5Y4)" answer_label="not fulfilled"
molecule_smiles=Cc1c(Cc2ccc(=O)n(Cc3ccc(F)cc3F)c2)c2cc(F)ccc2n1CC(=O)O tested_on="CRTH2 (Homo sapiens, UniProt Q9Y5Y4)" answer_label=fulfilled

Answer whether the molecule Cc1c(-c2nn(CCOc3ccccc3)c(=O)c3ccccc23)c2cc(Cl)ccc2n1CC(=O)NS(C)(=O)=O has IC50 strictly less than 20 nM not fulfilled

Identify whether the molecule Cc1c(-c2nn(Cc3cccc(F)c3F)c(=O)c3ccccc23)c2cc(F)ccc2n1CC(=O)O records IC50 below 20 nM. fulfilled

# TODO verify IC50 < 20 nM strictly for this molecule: Cc1c(-c2nn(CCC(C)(C)O)c(=O)c3ccccc23)c2cc(F)ccc2n1CC(=O)O not fulfilled

###

Biological target: CRTH2 (Homo sapiens, UniProt Q9Y5Y4)
Assay: FRET based competitive immunoassay (cAMP) in CRTH2 expressing CHO cells
Details: CRTH2 expressing CHO cells incubated with forskolin and PGD2; Eu3+ cryptate-labeled anti-cAMP and d2-labeled cAMP
METRIC: IC50 (nM)
Number in nM, nothing else.

compound=Cc1c(-c2nn(CCc3ccc(F)cc3)c(=O)c3ccccc23)c2ccccc2n1CC(=O)O measurement=93
compound="Cc1nnc(Cn2nc(-c3c(C)n(CC(=O)O)c4ccc(Cl)cc34)c3ccccc3c2=O)[nH]1 [Example 259b]" measurement=26
compound=Cc1c(-c2ccc(=O)n(Cc3ccc4ccccc4n3)n2)c2cc(F)ccc2n1CC(=O)O measurement=57
compound=Cc1ccc2c(c1)c(-c1ccc(=O)n(CC(F)(F)F)c1)c(C)n2CC(=O)O measurement=1180
compound=Cc1c(-c2ccc(=O)n(CCCC(F)(F)F)n2)c2cc(F)ccc2n1CC(=O)O measurement=865
compound=Cc1c(Cc2ccc(=O)n(Cc3ccccn3)n2)c2cc(F)ccc2n1CC(=O)O measurement=18
compound=Cc1c(-c2ccc(=O)n(C)n2)c2cc(Cl)ccc2n1CC(=O)O measurement=2150
compound=Cc1c(-c2nn(Cc3ccccc3F)c(=O)c3ccccc23)c2cc(Cl)ccc2n1CC(=O)O measurement=17
compound=Cc1c(Cc2ccc(=O)n(Cc3cccc(F)c3F)c2)c2ccccc2n1CC(=O)O measurement=72
compound=Cc1c(Cc2ccc(=O)n(Cc3cccc(F)c3F)n2)c2ccccc2n1CC(=O)O measurement=22

Consider the compound Cc1c(-c2nn(Cc3nc4cc(Cl)ccc4s3)c(=O)c3ccccc23)c2cc(F)ccc2n1CC(=O)O and give its measured IC50. 3

Request the reported IC50 associated with Cc1c(-c2nn(Cc3nc4ccccc4s3)c(=O)c3ccccc23)c2ccccc2n1CC(=O)O 14

If you can, please state the reported IC50 value of Cc1c(-c2ccc(=O)n(CC(C)C)n2)c2cc(F)ccc2n1CC(=O)O . 111

###

Target: CRTH2 (Homo sapiens, UniProt Q9Y5Y4)
Test: FRET based competitive immunoassay (cAMP) in CRTH2 expressing CHO cells
Settings: CRTH2 expressing CHO cells incubated with forskolin and PGD2; Eu3+ cryptate-labeled anti-cAMP and d2-labeled cAMP
Recorded pIC50, one value per entry.
Quick note: pIC50 values are minus log10 of concentrations in mol/L.

molecule_smiles=CCn1nc(-c2c(C)n(CC(=O)O)c3ccccc23)ccc1=O measurement=5.76
molecule_smiles=Cc1c(-c2ccc(=O)n(Cc3ccccc3F)c2)c2ccccc2n1CC(=O)O measurement=7.96
molecule_smiles=Cc1c(-c2nn(CC(C)C)c(=O)c3ccccc23)c2cc(F)ccc2n1CC(=O)O measurement=7.89
molecule_smiles=Cc1c(-c2nn(Cc3cccc(C(F)(F)F)c3)c(=O)c3ccccc23)c2cc(Cl)ccc2n1CC(=O)O measurement=7.35
molecule_smiles=Cc1c(-c2nn(Cc3ccccc3)c(=O)c3ccccc23)c2cc(Cl)cc(F)c2n1CC(=O)O measurement=7.41
molecule_smiles=Cc1cc(Cn2nc(-c3c(C)n(CC(=O)O)c4ccc(F)cc34)ccc2=O)c2ccccc2n1 measurement=7.14

GET /values?readout=pIC50&system=CRTH2 (Homo sapiens, UniProt Q9Y5Y4)&item= Cc1c(-c2ccc(=O)n(Cc3nc4ccccc4s3)n2)c2cc(Cl)ccc2n1CC(=O)O 7.34

###

Recorded pIC50 for the following compounds
Target: CRTH2 (Homo sapiens)
Assay: FRET based competitive immunoassay (cAMP) in CRTH2 expressing CHO cells
Settings: CRTH2 expressing CHO cells incubated with forskolin and PGD2; Eu3+ cryptate-labeled anti-cAMP and d2-labeled cAMP
Lab note — pIC50 values are minus log10 of concentrations in M.

compound="Cc1c(-c2ccc(=O)n(Cc3ccc(F)cc3C(F)(F)F)n2)c2cc(Cl)ccc2n1CC(=O)O [Example 142]" metric=pIC50 measurement=7.72
compound="Cc1c(-c2ccc(=O)n(Cc3ccc(F)cc3F)c2)c2cc(Cl)ccc2n1CC(=O)O [Example 274]" metric=pIC50 measurement=8.52

Okay, now this compound:
# get_value(readout= pIC50, system= CRTH2 (Homo sapiens)) for Cc1c(-c2cn(C(C)C)c(=O)c3ccccc23)c2cc(F)ccc2n1CC(=O)O [Example 249] 8.30

###

Here, each record is paired with measured pIC50 data.
Biological target: CRTH2 (Homo sapiens, UniProt Q9Y5Y4)
Experiment: FRET based competitive immunoassay (cAMP) in CRTH2 expressing CHO cells
Details: CRTH2 expressing CHO cells incubated with forskolin and PGD2; Eu3+ cryptate-labeled anti-cAMP and d2-labeled cAMP
# pIC50 = -log10(concentration in molar units)

Some solved entries appear below for comparison.
molecule_smiles=Cc1c(-c2nn(Cc3ccc(Cl)c(F)c3)c(=O)c3ccccc23)c2cc(F)ccc2n1CC(=O)O tested_on="CRTH2 (Homo sapiens, UniProt Q9Y5Y4)" metric=pIC50 measurement=8.00
molecule_smiles=Cc1c(-c2ccc(=O)n(Cc3ccccc3)n2)c2cc(F)cc(F)c2n1CC(=O)O tested_on="CRTH2 (Homo sapiens, UniProt Q9Y5Y4)" metric=pIC50 measurement=6.83
molecule_smiles=Cc1c(-c2cn(CC(C)(C)C)c(=O)c3ccccc23)c2cc(F)ccc2n1CC(=O)O tested_on="CRTH2 (Homo sapiens, UniProt Q9Y5Y4)" metric=pIC50 measurement=8.52
molecule_smiles=Cc1c(-c2ccc(=O)n(Cc3ccccc3C(F)(F)F)n2)c2cc(Cl)ccc2n1CC(=O)O tested_on="CRTH2 (Homo sapiens, UniProt Q9Y5Y4)" metric=pIC50 measurement=7.66
molecule_smiles=Cc1c(Cc2ccc(=O)n(Cc3cc(F)ccc3F)c2)c2cc(F)ccc2n1CC(=O)O tested_on="CRTH2 (Homo sapiens, UniProt Q9Y5Y4)" metric=pIC50 measurement=8.10

Hi! What's the reported pIC50 for Cc1c(-c2ccc(=O)n(Cc3ccccc3)n2)c2cc(S(C)(=O)=O)ccc2n1CC(=O)O on CRTH2 (Homo sapiens, UniProt Q9Y5Y4)? 6.45

Checklist item: pIC50 tested on CRTH2 (Homo sapiens, UniProt Q9Y5Y4), entry Cc1c(-c2ccc(=O)n(Cc3cccc(F)c3)n2)c2cc(F)ccc2n1CC(=O)O , value? 7.52

# get_value(readout= pIC50, system= CRTH2 (Homo sapiens, UniProt Q9Y5Y4)) for Cc1c(-c2nn(Cc3ccc4ccccc4n3)c(=O)c3ccccc23)c2cc(Cl)ccc2n1CC(=O)O 7.96

CRTH2 (Homo sapiens, UniProt Q9Y5Y4) / pIC50 / Cc1c(-c2ccc(=O)n(Cc3ccc(F)cc3)n2)c2ccccc2n1CC(=O)O : value? 7.35

Recorded pIC50 for Cc1c(Cc2ccc(=O)n(Cc3ccc(F)cc3)c2)c2cc(F)ccc2n1CC(=O)O with CRTH2 (Homo sapiens, UniProt Q9Y5Y4), please? 8.52
